# TEST_TARGET: Glycogen synthase kinase-3 (Sus scrofa, UniProt B2LUN4+I6LNT8)
# ASSAY: Inhibition of porcine brain GSK-3alpha/beta using YRRAAVPPSPSLSRHSSPHQpSEDEEE as substrate incubated for 30 mins in presence of ATP by scintillation counting method
# Type: tissue-based

[
  {
    "COMPOUND": "O=C1NC(N2CCCC2)=N/C1=C\\c1ccc2c(c1)OCO2",
    "UNIT_LABEL": "nM",
    "VALUE_COMPARATOR": "=",
    "IC50": 6200
  },
  {
    "COMPOUND": "CN1CCN(c2ccc(NC3=N/C(=C\\C4=COc5ccccc5O4)C(=O)N3)cc2)CC1",
    "UNIT_LABEL": "nM",
    "VALUE_COMPARATOR": "=",
    "IC50": 120
  },
  {
    "COMPOUND": "O=C1NC(Nc2ccc(F)cc2)=N/C1=C\\c1ccc2c(c1)OCO2",
    "UNIT_LABEL": "nM",
    "VALUE_COMPARATOR": "=",
    "IC50": 8800
  },
  {
    "COMPOUND": "CNC1=N/C(=C\\c2ccc3c(c2)OCO3)C(=O)N1",
    "UNIT_LABEL": "nM",
    "VALUE_COMPARATOR": "=",
    "IC50": 6200
  },
  {
    "COMPOUND": "Cc1ccc(NC2=N/C(=C\\c3ccc4c(c3)OCO4)C(=O)N2)cc1C",
    "UNIT_LABEL": "nM",
    "VALUE_COMPARATOR": ">",
    "IC50": 10000
  },
  {
    "COMPOUND": "CCNC1=N/C(=C\\c2ccc3c(c2)OCO3)C(=O)N1",
    "UNIT_LABEL": "nM",
    "VALUE_COMPARATOR": "=",
    "IC50": 2400
  },
  {
    "COMPOUND": "CN1C(=O)/C(=C/c2ccc3c(c2)OCO3)N=C1Nc1ccccc1",
    "UNIT_LABEL": "nM",
    "VALUE_COMPARATOR": "=",
    "IC50": 750
  },
  {
    "COMPOUND": "O=C1NC(N2CCCCC2)=N/C1=C\\c1ccc2c(c1)OCO2",
    "UNIT_LABEL": "nM",
    "VALUE_COMPARATOR": "=",
    "IC50": 2600
  },
  {
    "COMPOUND": "COc1cc(/C=C2\\N=C(Nc3ccccc3)NC2=O)ccc1O",
    "UNIT_LABEL": "nM",
    "VALUE_COMPARATOR": "=",
    "IC50": 1100
  },
  {
    "COMPOUND": "CCCNC1=N/C(=C\\c2ccc3c(c2)OCO3)C(=O)N1c1ccccc1",
    "UNIT_LABEL": "nM",
    "VALUE_COMPARATOR": ">",
    "IC50": 10000
  },
  {
    "COMPOUND": "CN1C(=O)/C(=C/c2ccc3c(c2)OCO3)N=C1N",
    "UNIT_LABEL": "nM",
    "VALUE_COMPARATOR": "=",
    "IC50": 5000
  },
  {
    "COMPOUND": "CCCSC1=N/C(=C\\c2ccc3c(c2)OCO3)C(=O)N1C",
    "UNIT_LABEL": "nM",
    "VALUE_COMPARATOR": "=",
    "IC50": 2000
  },
  {
    "COMPOUND": "O=C1NC(Nc2ccccc2)=N/C1=C\\c1ccc2c(c1)CCCO2",
    "UNIT_LABEL": "nM",
    "VALUE_COMPARATOR": ">",
    "IC50": 10000
  },
  {
    "COMPOUND": "CCCNC1=N/C(=C\\c2ccc3c(c2)OCO3)C(=O)N1C",
    "UNIT_LABEL": "nM",
    "VALUE_COMPARATOR": "=",
    "IC50": 1400
  },
  {
    "COMPOUND": "Cc1ccc(NC2=N/C(=C\\c3ccc4c(c3)OCO4)C(=O)N2)cc1",
    "UNIT_LABEL": "nM",
    "VALUE_COMPARATOR": "=",
    "IC50": 7300
  },
  {
    "COMPOUND": "O=C1NC(Nc2ccccc2)=N/C1=C\\c1ccc2c(c1)CCO2",
    "UNIT_LABEL": "nM",
    "VALUE_COMPARATOR": ">",
    "IC50": 10000
  },
  {
    "COMPOUND": "O=C1NC(N2CCOCC2)=N/C1=C\\c1ccc2c(c1)OCO2",
    "UNIT_LABEL": "nM",
    "VALUE_COMPARATOR": "=",
    "IC50": 6500
  },
  {
    "COMPOUND": "COc1ccc(NC2=N/C(=C\\c3ccc4c(c3)OCO4)C(=O)N2)cc1",
    "UNIT_LABEL": "nM",
    "VALUE_COMPARATOR": ">",
    "IC50": 10000
  },
  {
    "COMPOUND": "COc1cc(/C=C2\\N=C(Nc3ccc(N4CCCCC4)cc3)NC2=O)ccc1O",
    "UNIT_LABEL": "nM",
    "VALUE_COMPARATOR": ">",
    "IC50": 10000
  },
  {
    "COMPOUND": "Cc1ccc(C)c(NC2=N/C(=C\\c3ccc4c(c3)OCO4)C(=O)N2)c1",
    "UNIT_LABEL": "nM",
    "VALUE_COMPARATOR": "=",
    "IC50": 10000
  },
  {
    "COMPOUND": "O=C1NC(NC2CCNCC2)=N/C1=C\\c1ccc2c(c1)OCO2",
    "UNIT_LABEL": "nM",
    "VALUE_COMPARATOR": "=",
    "IC50": 1300
  },
  {
    "COMPOUND": "CCSC1=N/C(=C\\c2ccc3c(c2)OCO3)C(=O)N1",
    "UNIT_LABEL": "nM",
    "VALUE_COMPARATOR": "=",
    "IC50": 900
  },
  {
    "COMPOUND": "O=C1NC(Nc2cccc(F)c2)=N/C1=C\\c1ccc2c(c1)OCO2",
    "UNIT_LABEL": "nM",
    "VALUE_COMPARATOR": "=",
    "IC50": 560
  },
  {
    "COMPOUND": "CSC1=N/C(=C\\c2ccc3c(c2)OCO3)C(=O)N1",
    "UNIT_LABEL": "nM",
    "VALUE_COMPARATOR": "=",
    "IC50": 1800
  },
  {
    "COMPOUND": "O=C1NC(Nc2ccccc2)=N/C1=C\\c1ccc2c(c1)OCO2",
    "UNIT_LABEL": "nM",
    "VALUE_COMPARATOR": "=",
    "IC50": 600
  },
  {
    "COMPOUND": "O=C1NC(Nc2ccccc2)=N/C1=C\\c1ccc2c(c1)OCCO2",
    "UNIT_LABEL": "nM",
    "VALUE_COMPARATOR": "=",
    "IC50": 2000
  },
  {
    "COMPOUND": "O=C1NC(Nc2ccc(N3CCCCC3)cc2)=N/C1=C\\c1ccc2c(c1)OCO2",
    "UNIT_LABEL": "nM",
    "VALUE_COMPARATOR": ">",
    "IC50": 10000
  },
  {
    "COMPOUND": "O=C1NC(Nc2ccc(O)cc2)=N/C1=C\\c1ccc2c(c1)OCO2",
    "UNIT_LABEL": "nM",
    "VALUE_COMPARATOR": "=",
    "IC50": 530
  },
  {
    "COMPOUND": "O=C1NC(Nc2ccc(N3CCNCC3)cc2)=N/C1=C\\c1ccc2c(c1)OCO2",
    "UNIT_LABEL": "nM",
    "VALUE_COMPARATOR": "=",
    "IC50": 2400
  },
  {
    "COMPOUND": "CCCCCOc1ccc(NC2=N/C(=C\\c3ccc4c(c3)OCO4)C(=O)N2)cc1",
    "UNIT_LABEL": "nM",
    "VALUE_COMPARATOR": ">",
    "IC50": 10000
  },
  {
    "COMPOUND": "[2H]C1([2H])Oc2ccc(/C=C3\\N=C(Nc4ccccc4)NC3=O)cc2O1",
    "UNIT_LABEL": "nM",
    "VALUE_COMPARATOR": "=",
    "IC50": 750
  },
  {
    "COMPOUND": "O=C1NC(Nc2ccccn2)=N/C1=C\\c1ccc2c(c1)OCO2",
    "UNIT_LABEL": "nM",
    "VALUE_COMPARATOR": "=",
    "IC50": 1700
  },
  {
    "COMPOUND": "CCCNC1=N/C(=C\\c2ccc3c(c2)OCO3)C(=O)N1CCC",
    "UNIT_LABEL": "nM",
    "VALUE_COMPARATOR": ">",
    "IC50": 10000
  },
  {
    "COMPOUND": "COc1cc(/C=C2\\N=C(Nc3ccc(N4CCNCC4)cc3)NC2=O)ccc1O",
    "UNIT_LABEL": "nM",
    "VALUE_COMPARATOR": "=",
    "IC50": 6500
  },
  {
    "COMPOUND": "CCCSC1=N/C(=C\\c2ccc3c(c2)OCO3)C(=O)N1",
    "UNIT_LABEL": "nM",
    "VALUE_COMPARATOR": "=",
    "IC50": 1400
  },
  {
    "COMPOUND": "O=C1NC(Nc2ccc(O)c(F)c2)=N/C1=C\\c1ccc2c(c1)OCO2",
    "UNIT_LABEL": "nM",
    "VALUE_COMPARATOR": "=",
    "IC50": 550
  },
  {
    "COMPOUND": "NC1=N/C(=C\\c2ccc3c(c2)OCO3)C(=O)N1",
    "UNIT_LABEL": "nM",
    "VALUE_COMPARATOR": "=",
    "IC50": 2100
  },
  {
    "COMPOUND": "COc1cc(/C=C2\\N=C(Nc3ccc(N4CCN(C)CC4)cc3)NC2=O)ccc1O",
    "UNIT_LABEL": "nM",
    "VALUE_COMPARATOR": "=",
    "IC50": 200
  },
  {
    "COMPOUND": "CN1CCN(c2ccc(NC3=N/C(=C\\c4ccc5c(c4)OCO5)C(=O)N3)cc2)CC1",
    "UNIT_LABEL": "nM",
    "VALUE_COMPARATOR": "=",
    "IC50": 120
  },
  {
    "COMPOUND": "CCSC1=N/C(=C\\c2ccc3c(c2)OCO3)C(=O)N1C",
    "UNIT_LABEL": "nM",
    "VALUE_COMPARATOR": "=",
    "IC50": 1100
  },
  {
    "COMPOUND": "O=C1NC(N2CCC(N3CCCCC3)CC2)=N/C1=C\\c1ccc2c(c1)OCO2",
    "UNIT_LABEL": "nM",
    "VALUE_COMPARATOR": "=",
    "IC50": 6200
  },
  {
    "COMPOUND": "O=C1NC(Nc2ccccc2)=NC1Cc1ccc2c(c1)OCO2 (centres undefined)",
    "UNIT_LABEL": "nM",
    "VALUE_COMPARATOR": ">",
    "IC50": 10000
  },
  {
    "COMPOUND": "O=C1NC(N2CCN(c3ccc(F)cc3)CC2)=N/C1=C\\c1ccc2c(c1)OCCO2",
    "UNIT_LABEL": "nM",
    "VALUE_COMPARATOR": "=",
    "IC50": 8200
  },
  {
    "COMPOUND": "CN(C1=N/C(=C\\c2ccc3c(c2)OCO3)C(=O)N1)c1ccccc1",
    "UNIT_LABEL": "nM",
    "VALUE_COMPARATOR": "=",
    "IC50": 6200
  }
]
